Target: cloned human GLP-1 receptor (Homo sapiens)
Construct: expressed in transfected cells; host or cells: CHO or HEK-293 cells
Sequence (P43220 24-463): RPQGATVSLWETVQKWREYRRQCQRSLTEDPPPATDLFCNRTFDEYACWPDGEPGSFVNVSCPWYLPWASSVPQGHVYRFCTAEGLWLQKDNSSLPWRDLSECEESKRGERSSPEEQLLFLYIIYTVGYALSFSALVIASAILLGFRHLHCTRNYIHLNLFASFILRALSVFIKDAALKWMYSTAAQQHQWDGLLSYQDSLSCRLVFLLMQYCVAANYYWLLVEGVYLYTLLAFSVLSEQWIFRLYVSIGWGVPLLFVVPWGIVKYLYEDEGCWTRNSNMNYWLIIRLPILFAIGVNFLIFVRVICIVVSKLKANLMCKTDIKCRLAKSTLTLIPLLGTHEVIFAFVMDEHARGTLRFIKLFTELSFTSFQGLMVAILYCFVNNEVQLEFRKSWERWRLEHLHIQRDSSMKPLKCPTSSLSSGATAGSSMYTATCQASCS
Experiment: Functional cell-based assay: cAMP functional assay
Details: 0.5 h; percentage relative to maximal GLP-1-induced cAMP accumulation; na = not active in the assay; read-out: % activation
Assay Metric: Emax (%)
The figure you give is taken to be in %; do not add the unit.

Consider the worked cases shown below.
Molecule	Emax (%)
N#Cc1ccc(-c2ccc(C[C@H](NC(=O)[C@@H]3Cc4cc5c(cc4CN3C(=O)O[C@@H]3CCOC3)OC(c3ccc(OCc4ccc(Cl)c(Cl)c4)cc3)C(=O)N5)C(=O)O)cc2)cc1 (some centres unmarked) [Example 19]	69.9
CC(C)(C)OC(=O)N1Cc2cc3c(cc2C[C@H]1C(=O)N[C@@H](Cc1ccc(-c2ccc(C#N)cc2)cc1)C(=O)O)NC(=O)C(c1ccc(OCc2ccc(Cl)c(Cl)c2)cc1)O3 (some centres unmarked) [Example 29]	17
N#Cc1ccc(-c2ccc(C[C@H](NC(=O)[C@@H]3Cc4cc5c(cc4CN3C(=O)c3ccco3)OC(c3ccc(OCc4ccc(Cl)c(Cl)c4)cc3)C(=O)N5)C(=O)O)cc2)cc1 (some centres unmarked) [Example 20]	83.5
CC[C@@H](c1ccccc1)N1Cc2cc3c(cc2C[C@H]1C(=O)N[C@H](Cc1ccc(-c2ccc(C#N)cc2)cc1)C(=O)O)N(C)C(=O)[C@@H](c1ccc(OCc2ccc(Cl)c(Cl)c2)cc1)O3 [Example 98]	42

**Q:** What Emax value was documented for this molecule, N#Cc1ccc(-c2ccc(C[C@H](NC(=O)[C@@H]3Cc4cc5c(cc4CN3C(=O)C3CCCC3)OC(c3ccc(OCc4ccc(Cl)c(Cl)c4)cc3)C(=O)N5)C(=O)O)cc2)cc1 (some centres unmarked) [Example 16] ?
**A:** 78

**Q:** Check N#Cc1ccc(-c2ccc(C[C@H](NC(=O)[C@@H]3Cc4cc5c(cc4CN3C(=O)c3ccccc3)OC(c3ccc(OCc4cc(Cl)ccc4Cl)cc3)C(=O)N5)C(=O)O)cc2)cc1 (some centres unmarked) [Example 58] too.
**A:** 45

**Q:** Check CC(C)OC(=O)N1Cc2cc3c(cc2C[C@H]1C(=O)N[C@@H](Cc1ccc(-c2ccc(C#N)cc2)cc1)C(=O)O)N(C)C(=O)C(c1ccc(OCc2ccc(Cl)c(Cl)c2)cc1)O3 (some centres unmarked) [Example 68] too.
**A:** 33

**Q:** Check CN1C(=O)C(c2ccc(OCc3ccc(Cl)c(Cl)c3)cc2)Oc2cc3c(cc21)C[C@@H](C(=O)N[C@@H](Cc1ccc(-c2ccc(C#N)cc2)cc1)C(=O)O)N(CC#Cc1ccccc1)C3 (some centres unmarked) [Example 69] too.
**A:** 51

**Q:** Check COc1ccc(C(=O)N2Cc3cc4c(cc3C[C@H]2C(=O)N[C@@H](Cc2ccc(-c3ccc(C#N)cc3)cc2)C(=O)O)NC(=O)C(c2ccc(OCc3ccc(Cl)c(Cl)c3)cc2)O4)cc1 (some centres unmarked) [Example 23] too.
**A:** 65.5

**Q:** Check N#Cc1ccc(-c2ccc(C[C@H](NC(=O)[C@@H]3Cc4cc5c(cc4CN3C(=O)OC3CCC(O)C3)OC(c3ccc(OCc4ccc(Cl)c(Cl)c4)cc3)C(=O)N5)C(=O)O)cc2)cc1 (some centres unmarked) [Example 2] too.
**A:** 7.8

**Q:** Check N#Cc1ccc(-c2ccc(C[C@H](NC(=O)[C@@H]3Cc4cc5c(cc4CN3C(=O)N3CCCCC3)OC(c3ccc(OCc4ccc(Cl)c(Cl)c4)cc3)C(=O)N5)C(=O)O)cc2)cc1 (some centres unmarked) [Example 17] too.
**A:** 80

**Q:** Check Cc1ccccc1S(=O)(=O)N1Cc2cc3c(cc2C[C@H]1C(=O)N[C@@H](Cc1ccc(-c2ccc(C#N)cc2)cc1)C(=O)O)NC(=O)C(c1ccc(OCc2ccc(Cl)c(Cl)c2)cc1)O3 (some centres unmarked) [Example 37] too.
**A:** 32

**Q:** Check N#Cc1ccc(-c2ccc(C[C@H](NC(=O)[C@@H]3Cc4cc5c(cc4CN3C(=O)OC3CCOCC3)OC(c3ccc(OCc4ccc(Cl)c(Cl)c4)cc3)C(=O)N5)C(=O)O)cc2)cc1 (some centres unmarked) [Example 11] too.
**A:** 71

**Q:** Check N#Cc1ccc(-c2ccc(C[C@H](NC(=O)[C@@H]3Cc4cc5c(cc4CN3Cc3ccccc3C#N)OC(c3ccc(OCc4ccc(Cl)c(Cl)c4)cc3)C(=O)N5)C(=O)O)cc2)cc1 (some centres unmarked) [Example 53] too.
**A:** 52.5

**Q:** Check N#Cc1ccc(-c2ccc(C[C@H](NC(=O)[C@@H]3Cc4cc5c(cc4CN3CCc3ccccc3)OC(c3ccc(OCc4ccc(Cl)c(Cl)c4)cc3)C(=O)N5)C(=O)O)cc2)cc1 (some centres unmarked) [Example 35] too.
**A:** 16
